assay.info: Solubility of Compound 1 free base in aqueous at various pH
Format: physicochemical
study.conditions: aqueous solution, aqueous buffer, pH 5.3, time 3 h

{"compound": "O=C1CC[C@H](N2C(=O)c3cccc(NCc4ccc(CN5CC(N6CCOCC6)C5)cc4F)c3C2=O)C(=O)N1 [Compound 1 Free Base]", "solubility at 3 h, µg/mL": 4500}
